The compounds listed here are annotated with their Ki.
system: Nicotinamide N-methyltransferase (Homo sapiens, UniProt P40261)
Sequence (P40261 whole entry): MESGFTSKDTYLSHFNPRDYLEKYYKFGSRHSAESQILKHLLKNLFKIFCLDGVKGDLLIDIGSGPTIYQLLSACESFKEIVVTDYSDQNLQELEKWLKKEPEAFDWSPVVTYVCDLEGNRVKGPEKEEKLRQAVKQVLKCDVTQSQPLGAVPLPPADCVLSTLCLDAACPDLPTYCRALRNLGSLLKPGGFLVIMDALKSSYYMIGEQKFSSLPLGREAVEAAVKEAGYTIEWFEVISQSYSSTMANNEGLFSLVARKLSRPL
experimentalDetails: NNMT Enzymatic Activity Assay
reportedConditions: pH 8.6; 37 °C
Write the answer as a number in mM, unit excluded.

Examples with answers:
NC(=O)c1cnc2ccccc2c1 [quinoline 3-carboxamide]	9.7
NC(=S)c1cccnc1 [thionicotinamide]	6.6

Ask: In one line, give reported Ki of the entry c1ccc2c(c1)CCNC2 [1,2,3,4-tetrahydroisoquinoline] .
Reply: 4.7
